Data provenance is patent US8822517B2.

assayed_target: serotoninergic 5-HT1A receptor (Homo sapiens)
assay_summary: Binding assay 5-HT1A (h), [3H]8-OH-DPAT, HEK-293 cells
Design: expressed in transfected cells; host or cells: HEK-293 cells
experimental_setup: read-out: 5-HT1A
readout_name: inhibition at 1 µM (%)

compound	measured_result
O=c1[nH]c2cccc(N3CCN(CCCNS(=O)(=O)c4cccc(Cl)c4)CC3)c2[nH]1 [Compound 174]	98
Cc1[nH]c2ccc(Cl)cc2c1C1=CCN(CCCCNS(=O)(=O)c2cccc(Cl)c2)CC1 [Compound 137]	39
O=S(=O)(NCCCN1CCN(c2nsc3ccccc23)CC1)c1ccc(Cl)c(Cl)c1 [Compound 251]	99
O=S(=O)(NCCCCN1CCN(c2nsc3ccccc23)CC1)c1ccc(F)c(Cl)c1 [Compound 63]	97
O=S(=O)(NCCCN1CCC(c2noc3cc(F)ccc23)CC1)c1ccc2ccccc2c1 [Compound 21]	77
N#Cc1ccc(S(=O)(=O)NCCCN2CCC(c3noc4cc(F)ccc34)CC2)cc1 [Compound 337]	41
N#Cc1cccc(S(=O)(=O)NCCCN2CCN(c3nsc4ccccc34)CC2)c1 [Compound 74]	99
O=S(=O)(NCCCCN1CCC(c2noc3cc(F)ccc23)CC1)c1cccc(C(F)(F)F)c1 [Compound 303]	35

----------
Listing: inhibition at 1 µM of selected compounds
assayed_target: serotoninergic 5-HT1A receptor (Homo sapiens)
Sequence (P08908 1-422): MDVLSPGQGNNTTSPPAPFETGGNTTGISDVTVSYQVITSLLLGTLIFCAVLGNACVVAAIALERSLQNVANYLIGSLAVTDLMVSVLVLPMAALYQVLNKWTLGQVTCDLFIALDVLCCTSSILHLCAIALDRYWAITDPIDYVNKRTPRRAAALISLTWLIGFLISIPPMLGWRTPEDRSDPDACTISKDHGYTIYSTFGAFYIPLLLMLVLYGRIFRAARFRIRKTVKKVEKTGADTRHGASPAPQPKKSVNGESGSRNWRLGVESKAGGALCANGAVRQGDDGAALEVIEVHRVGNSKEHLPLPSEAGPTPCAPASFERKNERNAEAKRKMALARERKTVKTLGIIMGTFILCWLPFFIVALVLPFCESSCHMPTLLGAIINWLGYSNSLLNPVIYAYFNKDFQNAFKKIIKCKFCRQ
assay_summary: Binding assay 5-HT1A (h), [3H]8-OH-DPAT, HEK-293 cells
Design: expressed in transfected cells; host or cells: HEK-293 cells
experimental_setup: read-out: 5-HT1A
Description: The specific ligand binding to the receptors is defined as the difference between the total binding and the nonspecific binding determined in the presence of an excess of so unlabelled ligand. The specific Ligand binding to the receptor is defined as the difference between total and non-specific binding determined in the presence of an excess of unlabelled ligand. The compounds were tested at a concentration of 1×10^−6 M, and scintillation counting was the method of detection of ligand binding.
readout_name: inhibition at 1 µM (%)

compound	readout_unit	measured_result
N#Cc1cccc(S(=O)(=O)NCCCCN2CCN(c3cccc4[nH]ccc34)CC2)c1 [Compound 362]	%	91
O=S(=O)(NCCCCN1CCN(c2noc3ccccc23)CC1)c1ccc2ccccc2c1 [Compound 14]	%	88
O=S(=O)(NCCCCN1CCN(c2nsc3ccccc23)CC1)c1ccc2c(c1)CCO2 [Compound 242]	%	92
Cc1c(S(=O)(=O)NCCCCN2CCN(c3cccc4[nH]c(=O)[nH]c34)CC2)sc2ccc(Cl)cc12 [Compound 165]	%	70
